# experimentNotes: Pharmacokinetics in female rats, intravenous and intravaginal
# Assay type: in vivo, rat
# conditionLabel: female, rat, plasma; IVag: 30 mg/kg BID for 5 days; at 3.5 hours following the last dose
propertyLabel: Cmax (ng/mL)
# value in ng/mL; strip the unit string

Reported Cmax for Cc1ccc(C(=O)Nc2ccc(S(=O)(=O)O)c3cc(S(=O)(=O)O)cc(S(=O)(=O)O)c23)cc1NC(=O)c1cccc(NC(=O)Nc2cccc(C(=O)Nc3cc(C(=O)Nc4ccc(S(=O)(=O)O)c5cc(S(=O)(=O)O)cc(S(=O)(=O)O)c45)ccc3C)c2)c1 [Suramin] : what is it?
17700

---

# experimentNotes: Pharmacokinetics in female rats, intravenous and intravaginal
# Type: in vivo, rat
# conditionLabel: female, rat, plasma, 30 mg/kg, intravaginal administration; read-out: mean half-life (converted)
propertyLabel: half-life

Endpoint output: half-life of Cc1ccc(C(=O)Nc2ccc(S(=O)(=O)O)c3cc(S(=O)(=O)O)cc(S(=O)(=O)O)c23)cc1NC(=O)c1cccc(NC(=O)Nc2cccc(C(=O)Nc3cc(C(=O)Nc4ccc(S(=O)(=O)O)c5cc(S(=O)(=O)O)cc(S(=O)(=O)O)c45)ccc3C)c2)c1 [Suramin] . Value?
~132 h

---

# experimentNotes: Pharmacokinetics in female rats, intravenous and intravaginal
# Format: in vivo, rat
# conditionLabel: female, rat, plasma; IV: single dose 30 mg/kg
propertyLabel: clearance (mL/min)
Give your result in mL/min as a bare value.

What does the data say about its clearance? Entry: Cc1ccc(C(=O)Nc2ccc(S(=O)(=O)O)c3cc(S(=O)(=O)O)cc(S(=O)(=O)O)c23)cc1NC(=O)c1cccc(NC(=O)Nc2cccc(C(=O)Nc3cc(C(=O)Nc4ccc(S(=O)(=O)O)c5cc(S(=O)(=O)O)cc(S(=O)(=O)O)c45)ccc3C)c2)c1
0.0292
